The following sequences are listed with their measured sensor-assay potency score (higher = more potent) values.
target: YIPF6; test: pooled miR-30 sensor sort-seq; sequence = guide strand; details: shRNA; also: reference of the scale not given here
Respond using a number only.

Worked cases, answers included:
• TTTTAGATCACGCATGATGGTA = -0.619
• TCACTATCTGCAGAGTCTCTTT = -0.696

Input `TATCTGCAGAGTCTCTTTGCAG` . Output sensor-assay potency score (higher = more potent): -1.39

* * *

biological target: NRXN1; assay: pooled miR-30 sensor sort-seq; sequence = guide strand; details: shRNA
Property: sensor-assay potency score (higher = more potent); scope: individual sequences
Give the value as a plain number.

# annotated cases, reported sensor-assay potency score (higher = more potent) shown
• TATTTTTATATACAACCTCTTT = -1.15
• TTTCTTTAGCTACTCCTCCTAT = -0.523

So for `TATCATTGAGGTTATAGCCAGC` , the logged sensor-assay potency score (higher = more potent) turned out to be -0.792

* * *

target: DLAT; test: pooled miR-30 sensor sort-seq; sequence = guide strand; settings: shRNA
observable: sensor-assay potency score (higher = more potent)
// no unit string in output, number only

Known sensor-assay potency score (higher = more potent) results, listed for orientation:
• TATCTGTGAAGACACCTGTAGG = -1.1
• TAGGTGTGATGAGTCCTGCAGG = -0.602
• ATATCTGTGAAGACACCTGTAG = -0.267

Now turn to the next sequence.
Value of sensor-assay potency score (higher = more potent) reported for the sequence `TAATCGCTGTGCAATAACCCGA` is -0.457

* * *

molecular target: PPP1R15A; assay: pooled miR-30 sensor sort-seq; sequence = guide strand; settings: shRNA
observable: sensor-assay potency score (higher = more potent)
Please state the value as a number alone, without comment.

• TTTTACTGCTTCCACCAGCCAG = -1.03
• TTCAGGAAGGGAACTGCTGGTT = -0.684

Consider the record given below.
Documented sensor-assay potency score (higher = more potent) of `TTCTGTGAGCTTCTTTCTTTAC` : -1.62

* * *

biological target: C17orf89; assay: pooled miR-30 sensor sort-seq; sequence = guide strand; details: shRNA
The following sequences are listed with their measured sensor-assay potency score (higher = more potent) values.
Please reply with the number alone, leaving off any unit.

Example entries begin here.
- TACGCCGCGGCCTCGGCCCCGC: -1.68
- AGGCCTGCACGCACCTGCCGTA: -1.48

Here is the next item to consider.
Recorded result, `AGGGCCTCGAACTCCCGCGCGC` , sensor-assay potency score (higher = more potent): -1.88

* * *

target: S100P; test: pooled miR-30 sensor sort-seq; sequence = guide strand; settings: shRNA
// sensor-assay potency score (higher = more potent) lookup, one value per entry
// return just the number, without any unit appended

Examples with answers:
* TGTCTTTTCCACTCTGCAGGAA | -0.419
* TTGGTCAGGGTCTGCGTGCTGC | -0.458

Would you kindly look at the next entry?
Given item `TACATGAGCAGGCTCAGCCTAG` , the value recorded as its sensor-assay potency score (higher = more potent) is -0.833

* * *

target: SLC44A2; assay: pooled miR-30 sensor sort-seq; sequence = guide strand; conditions: shRNA
Quick list: sensor-assay potency score (higher = more potent) per entry.

• TTGTTGGTCTTGTTCAAGGGTT = -0.803
• TATAGTACTCAAAGTCCCGGGA = -0.338
• TTTGATGAGTGCAATCGCGATG = -0.724
• TAATCCAGTACCAAGAGACGGT = 0.196
• TTACTTGTTTCTCGCAGTCTGG = -0.794

Entry `TGTAGCAGTGAAATATTCCGTA` under SLC44A2 had sensor-assay potency score (higher = more potent) of 0.424

With SLC44A2 as the test system, `TTATAGACCGCTTCGTTGGAAG` showed sensor-assay potency score (higher = more potent) of -0.973

* * *

molecular target: KRI1; test: pooled miR-30 sensor sort-seq; sequence = guide strand; details: shRNA
Hi, to clarify the labels: Criterion met covers sensor-assay potency score (higher = more potent) from -0.8 upward, Criterion not met covers anything below -0.8.

* TACTTTCCGCAGCTTCTCCAGC | Criterion met
* TTTGTAAAAGTCCCGCTCCTGC | Criterion not met
* TAACCTTCCTCTCGTAGTCCTT | Criterion met

Exercise: Hi, just wondering whether `ATGTCCTCGTAGTCCAGCCGGT` shows sensor-assay potency score (higher = more potent) of -0.8 or higher.
Solution: Criterion not met

Exercise: Quick check, sensor-assay potency score (higher = more potent) >= -0.8? `TTCCTCCACATAACTTTGCGAC`
Solution: Criterion not met

Exercise: Determine whether measured sensor-assay potency score (higher = more potent) meets or exceeds -0.8 for `TTTGTTGAGGATGTAATCCCGC`
Solution: Criterion met

* * *

biological target: EMP1; test: pooled miR-30 sensor sort-seq; sequence = guide strand; conditions: shRNA
The following sequences are shown together with reported sensor-assay potency score (higher = more potent) values.
Respond using a number only.

Below, each entry is followed by its recorded sensor-assay potency score (higher = more potent) result.
- TCACTGGCATATGACAGGCTGT: -1.18
- ATAATAACAGTAGCGATGTGGA: -0.819
- TGATGCATCTACCGTATTGGAA: -0.931
- ATAGCATAATAACAGTAGCGAT: -1.69

Query `TATTGGAAACCAACCAGACATT` yields sensor-assay potency score (higher = more potent) of -1.22

* * *

Below is a list of entries, each paired with its recorded sensor-assay potency score (higher = more potent) value.
target: FBXO43; assay: pooled miR-30 sensor sort-seq; sequence = guide strand; conditions: shRNA
Please state the value as a number alone, without comment.

Please review the entries below; each comes with its answer.
- TTCTTGAAAAGAACCCTCCTGG: 0.0426
- TTGCTTTTCATGAACAGCTCAT: -0.219

Now turn to the next sequence.
sequence `AACCTTAACATATTCTTCCTGT` , sensor-assay potency score (higher = more potent) observed: 0.212

* * *

target: ACYP1; assay: pooled miR-30 sensor sort-seq; sequence = guide strand; settings: shRNA
sequences and their reported sensor-assay potency score (higher = more potent)
I only need the number, thanks.

- TAATATTAACACACAATAGTTC: -0.41
- TTCATTGTTGAAGTTTGCTTTG: -0.707

Record summary for `ATAACTTATTGACTAATGCTAA` : reported sensor-assay potency score (higher = more potent) = -0.709

* * *

molecular target: ZNF24; assay: pooled miR-30 sensor sort-seq; sequence = guide strand; conditions: shRNA
Listed next: entries and their corresponding sensor-assay potency score (higher = more potent).
Number, no unit, nothing else.

Would you please look over these solved cases?
• TTTGTGTGCGTCTCTGGCCTGA = -0.444
• TAAGTATTGAATCTTCTTCCAC = -0.673
• TAATGCTGAAGGAAGCTCCTGC = 0.616

Given item `TTGAGGAACACCCATACTGAGA` , the value recorded as its sensor-assay potency score (higher = more potent) is -1.26

* * *

We begin with a simple list: items and their reported sensor-assay potency score (higher = more potent).
target: CLN3; experiment: pooled miR-30 sensor sort-seq; sequence = guide strand; conditions: shRNA
Please state the value as a number alone, without comment.

The cases that follow already have their sensor-assay potency score (higher = more potent) on record.
- TCAAATCGTGATGAGCTGTTGT: 0.182
- TTGTGGCTAAGGATGTCGTGGG: -0.303
- TTGAACACTGTCCACCTTTCCC: -0.845
- TCGTGATGAGCTGTTGTGGGGG: -0.528
- AATCGTGATGAGCTGTTGTGGG: -0.0059
- TGAGCAACAAGAAATAGCTGGC: 0.625

Next:
Test item `AAGTAAACTACGACCAAGGGAA` ; CLN3; reported sensor-assay potency score (higher = more potent) was -0.0602

* * *

molecular target: RPF2; experiment: pooled miR-30 sensor sort-seq; sequence = guide strand; details: shRNA
Documented sensor-assay potency score (higher = more potent) across a set of sequences
Field format: numeric only.

* TTTCAGTGCATACACATCTTTA | -0.778
* TCTTTTTATATAGTACACCGTA | -0.652
* TTACATCGAAATCATCGCCAGC | -0.787

The measured sensor-assay potency score (higher = more potent) that `TTGTAGTTTGCTTAGGTCTTGC` showed for RPF2 is -0.359

Bench note, RPF2: `TAGTCTTCTATAATCTTCTGTT` , sensor-assay potency score (higher = more potent) reads -0.606

* * *

target: FGF1; assay: pooled miR-30 sensor sort-seq; sequence = guide strand; details: shRNA
# Lookup of reported sensor-assay potency score (higher = more potent) keyed by entry
Please state the value as a number alone, without comment.

- TTAAACTTCTCGGTCAGGGCTG: -0.0976
- AGGCAGATTAAACTTCTCGGTC: -1.58
- TATATAGGTGTTGTAATGGTTC: -0.522
- TTCTTGGATATATAGGTGTTGT: -1.22
- TTTCTGGCCATAGTGAGTCCGA: -0.918

The sequence identified as `TTTGGTGTCTGTGAGCCGTATA` registered its sensor-assay potency score (higher = more potent) at -0.694

sensor-assay potency score (higher = more potent) for `TTCCAGGAACAAACATTCCTCA` is -0.434

// `ATTTGGTGTCTGTGAGCCGTAT` : sensor-assay potency score (higher = more potent) value = -0.909
